- assay-protocol: Cytotoxicity against SKBR3 cells after 72 hrs by MTT assay
- Format: cell-based
- measurement-parameters: Homo sapiens, SK-BR-3, 72 h
measured-endpoint: IC50
Be sure to follow the number with its unit.

Look over these answered cases.
COc1ccc(CN(CCCCNc2c3ccc(Cl)cc3nc3ccc(OC)cc23)CCCNc2c3ccc(Cl)cc3nc3ccc(OC)cc23)cc1 :: 0.86 µM
COc1ccc2nc3cc(Cl)ccc3c(NCCCN(CCCNc3c4ccc(Cl)cc4nc4ccc(OC)cc34)Cc3cc(Br)cs3)c2c1 :: 0.7 µM

The value of IC50 measured for the compound COc1ccc2nc3cc(Cl)ccc3c(NCCCNCCCNc3c4ccc(Cl)cc4nc4ccc(OC)cc34)c2c1 turned out to be 0.77 µM

The value of IC50 measured for the compound COc1ccc2nc3cc(Cl)ccc3c(NCCCCN(CCCNc3c4ccc(Cl)cc4nc4ccc(OC)cc34)Cc3cccs3)c2c1 turned out to be 0.68 µM

The value of IC50 measured for the compound COc1ccc2nc3cc(Cl)ccc3c(NCCCN(CCCNc3c4ccc(Cl)cc4nc4ccc(OC)cc34)CC(O)CO)c2c1 (stereo not drawn) turned out to be 1.29 µM

The value of IC50 measured for the compound COc1ccc2nc3cc(Cl)ccc3c(NCCCN(CCCNc3c4ccc(Cl)cc4nc4ccc(OC)cc34)Cc3cccc(OC)c3OC)c2c1 turned out to be 0.79 µM

The value of IC50 measured for the compound COc1ccc2nc3cc(Cl)ccc3c(NCCCN(C)CCCNc3c4ccc(Cl)cc4nc4ccc(OC)cc34)c2c1 turned out to be 0.7 µM

The value of IC50 measured for the compound COc1ccc2nc3cc(Cl)ccc3c(NCCCN(CCCNc3c4ccc(Cl)cc4nc4ccc(OC)cc34)Cc3ccoc3)c2c1 turned out to be 0.69 µM

The values you see were collected from ChEMBL document CHEMBL1144567.
